Recorded koff, one value per entry.
Molecular target: T1, C-terminally FLAG-tagged human Gas6 recombinant protein (hGas6-F) (human, UniProt Q14393 31-678, gamma-carboxylated glutamic acid residues in the Gla domain (producer cells co-express rat VKOR and human GGCX); positions not given)
T1 construct: also called human Gas6-F; human Gas6 protein
T1 sequence: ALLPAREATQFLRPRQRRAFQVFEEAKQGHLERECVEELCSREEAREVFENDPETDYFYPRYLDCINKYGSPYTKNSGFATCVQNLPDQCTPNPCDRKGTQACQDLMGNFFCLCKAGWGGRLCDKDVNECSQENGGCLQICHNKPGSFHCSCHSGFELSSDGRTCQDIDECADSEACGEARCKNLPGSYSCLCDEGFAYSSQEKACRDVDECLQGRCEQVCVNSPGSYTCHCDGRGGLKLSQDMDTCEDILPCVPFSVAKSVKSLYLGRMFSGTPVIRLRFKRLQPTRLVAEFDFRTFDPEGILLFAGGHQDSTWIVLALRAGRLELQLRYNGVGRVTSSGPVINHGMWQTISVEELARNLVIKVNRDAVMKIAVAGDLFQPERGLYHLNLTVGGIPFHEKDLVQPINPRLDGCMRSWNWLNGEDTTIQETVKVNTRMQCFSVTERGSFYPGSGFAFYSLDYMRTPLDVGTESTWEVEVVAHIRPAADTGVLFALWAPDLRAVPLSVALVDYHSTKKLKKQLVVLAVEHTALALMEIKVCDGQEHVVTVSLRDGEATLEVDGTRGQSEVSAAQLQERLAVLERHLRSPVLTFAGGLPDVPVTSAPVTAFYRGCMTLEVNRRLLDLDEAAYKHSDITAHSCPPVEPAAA
Assay: SPR Biacore T100, captured antibody, Gas6 analyte, first test
Description: An anti-human IgG antibody was immobilized on a CM5 sensor chip (manufactured by GE Healthcare Japan Corp.) using Human Antibody Capture Kit (manufactured by GE Healthcare Japan Corp.) according to the attached manual. Each test antibody adjusted to 1 μg/mL was added for 10 seconds at a flow rate of 10 μL/min to flow cells. […] The obtained sensorgram was analyzed using Bia Evaluation Software (manufactured by GE Healthcare Japan Corp.), and the kinetic constant of each antibody was calculated.
API: value field is a number in s⁻¹; no unit string.

BINDER	MEAS VALUE
hzKM5321 LV4HV7 antibody (antibody, V domains shown, Humanized; variant human IgG4 constant region (EU S228P, L235E, R409K), human kappa; also called B-17; LV4HV7) VH: QIHLVQSGPELKKPGASVKISCKASGYTFTNYGMNWVKQAPGQGLKWMGWINTNTGEPTYTEEFKGRFVFSLDTSVTTAYLQISTLKAEDTATYFCARDEGWFVYWGQGTLITVSS VL: ETTLTQSPSSLSVSTGDRVTITCITSTDIDDDMNWYQQKPGKAPKLLISEGNTLRPGVPSRFSGSGSGTDFTFTISSTQPEDFATYYCLQTDSVPLTFGQGTKVEIK	0.000859

Output measured koff for this item: hzKM5320 LV5HV3a antibody (antibody, V domains shown, Humanized; variant human IgG4 constant region (EU S228P, L235E, R409K), human kappa; also called A-21) VH: QVQLVQSGSELKKPGASVKVSCKASGYTFTNYGMNWVRQAPGQGLKWMGWINTETGEPTYSDDFKGRFVFSLDTSVSTAYLQISSLKAEDTATYFCAREDGYYGTLDYWGQGTTVTVSS VL: DIVMTQSPDSLAVSLGERVTINCKASQSVSNDVAWYQQKPGQSPKVLIYYASNRYTGVPDRFSGSGSGTDFTFTISSVQAEDVAVYFCQQDYSSPWTFGQGTKLEIK
0.000177
